Reference for the values: paper PMC4929558

- target: AhR (XRE-luciferase reporter assay) (Homo sapiens, UniProt P35869)
- Construct: with Aryl hydrocarbon receptor nuclear translocator
- Sequence (P35869 11-848): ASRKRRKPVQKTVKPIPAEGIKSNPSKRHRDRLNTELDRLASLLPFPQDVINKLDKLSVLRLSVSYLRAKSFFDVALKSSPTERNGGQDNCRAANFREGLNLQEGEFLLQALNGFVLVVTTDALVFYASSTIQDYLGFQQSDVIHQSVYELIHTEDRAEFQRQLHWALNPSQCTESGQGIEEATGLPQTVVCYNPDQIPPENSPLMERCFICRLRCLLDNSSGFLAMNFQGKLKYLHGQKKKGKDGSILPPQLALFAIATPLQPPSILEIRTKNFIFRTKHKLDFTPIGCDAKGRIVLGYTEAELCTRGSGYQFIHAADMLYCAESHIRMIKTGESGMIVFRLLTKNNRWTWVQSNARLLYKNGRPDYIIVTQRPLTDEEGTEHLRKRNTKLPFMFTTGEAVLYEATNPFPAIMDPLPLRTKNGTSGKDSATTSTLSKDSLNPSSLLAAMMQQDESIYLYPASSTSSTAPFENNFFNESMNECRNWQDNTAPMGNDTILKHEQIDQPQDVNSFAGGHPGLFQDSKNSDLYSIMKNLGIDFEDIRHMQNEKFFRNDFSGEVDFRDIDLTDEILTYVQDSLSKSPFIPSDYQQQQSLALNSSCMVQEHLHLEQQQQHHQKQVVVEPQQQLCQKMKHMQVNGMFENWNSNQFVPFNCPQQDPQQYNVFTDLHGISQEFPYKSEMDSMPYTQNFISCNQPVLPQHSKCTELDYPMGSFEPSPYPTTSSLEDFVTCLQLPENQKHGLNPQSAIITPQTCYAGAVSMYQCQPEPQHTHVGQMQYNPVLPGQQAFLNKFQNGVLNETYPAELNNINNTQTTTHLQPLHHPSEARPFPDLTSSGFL
- test_details: XRE-luciferase reporter assay in cells
- run_conditions: agonist
recorded_metric: EC50
Report as: number unit

Provide value of EC50 for this record tested with AhR (XRE-luciferase reporter assay) (Homo sapiens, UniProt P35869): Nc1ccccc1-c1cc2ccccc2[nH]1 [2AI] 3.5 µM
